# MEASUREMENT PROTOCOL: protein stability index of a GFP-peptide fusion (GPS, HEK-293T) (PSI 1-6); higher = more stable;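 further: 24-mer peptide tiles fused after GFP, lentivirally expressed, FACS-sorted into six equal bins by GFP/DsRed ratio, decoded by Illumina sequencing, PSI is the read-weighted mean bin number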
# CONDITION PARAMETERS: treatment: MLN4924 1 uM, 8 h; c terminus: a fixed tail appended
ENDPOINT: protein stability index
Response field accepts a number only; no unit should be typed.

Please report the recorded protein stability index for LVVFAVLGFKANIMNEKCVVENAE [SLC6A17] .
2.82

Please report the recorded protein stability index for AFVRMKQLIEEGYVGEPLVCEVQV [GFOD1] .
2.55

Please report the recorded protein stability index for LPDPNNYYHRRNEMTTTDDLDFKH [CPXM2] .
4.7

Please report the recorded protein stability index for YQARKPLWFYNTSLKFFLNKPMLA [RHOBTB3] .
1.97

Please report the recorded protein stability index for LQCLQALYVDSLFFLRGRLDQLLR [PRAME] .
2.2

Please report the recorded protein stability index for EELTREAVAVDVAVPKRLLEIVGR [HAGHL] .
3.91

Please report the recorded protein stability index for FLLIVTLCVILYKKVHKGTVPKND [GLT8D2] .
2.3

Please report the recorded protein stability index for DALSSPTSVQEADETTRSDISERP [C2CD2L] .
5.61

Please report the recorded protein stability index for SEDMWGDEDFTFGAYQPTVVSSEG [FBF1] .
4.84

Please report the recorded protein stability index for TDGERVAEVAPEERENVAVAKLQE [SDE2] .
5.49

Please report the recorded protein stability index for AYDFHGSWEKVTGHNSPLYKRQEE [CHIT1] .
4.14

Please report the recorded protein stability index for SSSDSDFDDEEPRKFYVHIKPAPA [FCHO1] .
4.45

Please report the recorded protein stability index for GLVYRLNRFRVEISFHFEVTNHNI [TRIM43] .
3.35

Please report the recorded protein stability index for SRELSLRPSRSGAQQLEEEGPMEE [EID1] .
5.64

Please report the recorded protein stability index for YLHTNVALVAPLLRLENNHCHIEE [VPS39] .
2.74

Please report the recorded protein stability index for HDIVRFLVQLDDYRFASAGDDGIV [WDR41] .
2.2

Please report the recorded protein stability index for KAPVQNEAPALGGGEYQEPGGNVK [BEX5] .
5.54

Please report the recorded protein stability index for GILEHVDSASPVEDTSNDESSILG [M1AP] .
5.48

Please report the recorded protein stability index for TPLHVAAANKAVKCAEVIIPLLSS [ANKRD44] .
2.54

Please report the recorded protein stability index for LLDEEEALAKKFIDKNTQLTLQVY [TRIM14] .
2.72

Please report the recorded protein stability index for NGDPESVASLHWDGGALLGVLQYR [ADAMTS4] .
2.54

Please report the recorded protein stability index for GHSSSRDDYPSRGYSDRDGYGRDR [RBMX] .
4.88

Please report the recorded protein stability index for LHLAAQGRHAQTVETLLRHGAHIN [RIPK4] .
2.98

Please report the recorded protein stability index for EFNELLSKYQLSEAQLSLIRDIRR [NFE2L1] .
2.82

Please report the recorded protein stability index for QFTSSSSIKGSSGLGGGSSRTSCR [KRT17] .
4.33

Please report the recorded protein stability index for KTRVDLKELGQSQKEQGLSDNILS [PDZK1] .
4.88

Please report the recorded protein stability index for IAELLEVFDLRMMVANILNNEAFM [RHOBTB2] .
2.98

Please report the recorded protein stability index for CATVGNRGFVFGGRYRDARMNDLH [KLHDC2] .
2.05

Please report the recorded protein stability index for VKKDHVALQVPRGKEDSTLQLLRE [CBY2] .
4.37

Please report the recorded protein stability index for EMCHKPDVELLQDLGDIVARSESV [TRIM43] .
4.62

Please report the recorded protein stability index for KTFYKTADISQMLVCTADGDIHLS [TAF7L] .
2.41

Please report the recorded protein stability index for PQNGSETGWARKGLGNTWPGASGS [ATP23] .
4.33

Please report the recorded protein stability index for GASTFKEEPQTVPEARSRDATPPV [JUNB] .
5.32

Please report the recorded protein stability index for GLQEEPVEGFRVTLVDEGDLYNWE [CDC34] .
4.15

Please report the recorded protein stability index for ENAQIIYSLAEDTIQGVPLSSYIS [PCDHGA10] .
2.82

Please report the recorded protein stability index for PDLPFQIKPSENHYSLLTSQPLDR [PCDHGC5] .
4.13

Please report the recorded protein stability index for SAEQLKAQAIDFINRCSVLRQLGC [SPOPL] .
2.51

Please report the recorded protein stability index for CGRKLAKDGEYCWRWTGFNFGFDL [GMCL1] .
2.71

Please report the recorded protein stability index for QSVKMKDKLKIDLLPDGRHAVVEV [TAF7L] .
3.06

Please report the recorded protein stability index for CRPLQFQPSKSHKKVLKKMLKFLA [ATE1] .
3.43
